Entry source: patent US11091428B2

tested on: picornaviruses (CVB1, HRV-A2, HRV-A23, EV-68); experiment: Anti-picornavirus cytopathic effect (CPE) reduction assay on HeLa H1 cells; format: cell-based; conditions: Enterovirus B, HeLa H1, 48 h, HeLa H1 cells, 48 h, category from averaging the EC50 values from four picornaviruses (CVB1, HRV-A2, HRV-A23, EV68); read-out: EC50 values of the compounds determined in the anti-picornavirus assay
Each item that follows carries a reported EC50.

COMPOUND: CC(C(=O)C(=O)NCC1CC1)N(C)C(=O)c1ccccc1 (centres unmarked) [FP 149]
OBSERVED MEASUREMENT: 1 to 10 µM

COMPOUND: O=C(NC1CC1)C(=O)C1CCC(=O)N1CC1CCCC1 (centres unmarked) [FP 279]
OBSERVED MEASUREMENT: 1 to 10 µM

COMPOUND: CC(C(=O)C(=O)NCC1CC1)N(C=O)CC1CCN(C(=O)c2ccccc2)CC1 (centres unmarked) [FP 80]
OBSERVED MEASUREMENT: > 10 µM

COMPOUND: O=C(NCC1CCCCC1)C(=O)C1CCC(=O)N1CCC1CCOCC1 (centres unmarked) [FP 245]
OBSERVED MEASUREMENT: 1 to 10 µM

The record that follows has no EC50 shown yet.
Consider O=C(NCC1CC1)C(=O)C1CCC(=O)N1c1ccccc1 (centres unmarked) [FP 264] . Its measured EC50 is > 10 µM
